Source listed as ChEMBL document CHEMBL3102828.

Task for the reader: assign each of the following compounds its reported MIC.
# Test system: Staphylococcus epidermidis
# Assay comment: Antimicrobial activity against methicillin-sensitive Staphylococcus epidermidis ATCC 12228 by broth microdilution method
# Type: functional

Task: Which value of MIC has been reported for `CO[C@H]1/C=C\C(=O)O[C@H](C)C/C=C/C=C/[C@H](O)[C@H](C)C[C@H](CC=O)[C@@H]1O[C@@H]1O[C@H](C)[C@@H](OC(=O)Nc2ccc(C(F)(F)F)cc2)[C@H](N(C)C)[C@H]1O` in the records?
Result: > 64 µg/mL

Task: How about `CO[C@H]1/C=C\C(=O)O[C@H](C)C/C=C/C=C/[C@H](O)[C@H](C)C[C@H](CC=O)[C@@H]1O[C@@H]1O[C@H](C)[C@@H](O)[C@H](N(C)C)[C@H]1O` ?
Result: > 32 µg/mL

Task: Now the compound `CO[C@@H]1[C@@H](O[C@@H]2O[C@H](C)[C@@H](OC(=O)/C=C/c3ccnc4ccccc34)[C@H](N(C)C)[C@H]2O)[C@@H](CC=O)C[C@@H](C)[C@@H](OC(C)=O)/C=C/C=C/C[C@@H](C)OC(=O)C[C@H]1OC(C)=O`
Result: 8 µg/mL
